TGT: IGF2 (Homo sapiens, UniProt P01344)
Sequence (P01344 25-91): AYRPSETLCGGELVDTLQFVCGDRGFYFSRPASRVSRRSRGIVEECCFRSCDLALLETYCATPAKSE
METHOD NOTES: SPR (Biacore T200) of recombinant IGF2R domain 11 mutants on immobilised biotinylated IGF2
Format: binding
Design: purchased GroPep
MEASUREMENT CONTEXT: Table 3; 25° C., HBS-EP pH 7.4
QUANTITY: Kinetics kon (M⁻¹ s⁻¹)
Answer with a number only, understood to be in M⁻¹ s⁻¹.

Which Kinetics kon is listed for AB5 Q1569R P1597H S1602H: domain 11 AB5 + Q1569R, P1597H, S1602H (AB5-RHH) (protein) MKSNEHDDCQVTNPSTGHLFDLSSLSGRAGFTAAYAKGWGVYMSICGENENCPPGVGACFGRTRISVGKANKRLRYVDQVLQLVYKDGSHCPSKHGLSYKSVISFVCRPEAGPTNRPMLISLDKQTCTLFFSWHTPLACEQATECSV ?
5.9e+06

Which Kinetics kon is listed for AB3 P1597K: domain 11 AB3 + FG loop P1597K (protein) MKSNEHDDCQVTNPSTGHLFDLSSLSGRAGFTAAYSKSGVVYMSICGENENCPPGVGACFGQTRISVGKANKRLRYVDQVLQLVYKDGSKCPSKSGLSYKSVISFVCRPEAGPTNRPMLISLDKQTCTLFFSWHTPLACEQATECSV ?
1.05e+07

Which Kinetics kon is listed for AB5 Q1569R P1597K: domain 11 AB5 + Q1569R, P1597K (protein) MKSNEHDDCQVTNPSTGHLFDLSSLSGRAGFTAAYAKGWGVYMSICGENENCPPGVGACFGRTRISVGKANKRLRYVDQVLQLVYKDGSKCPSKSGLSYKSVISFVCRPEAGPTNRPMLISLDKQTCTLFFSWHTPLACEQATECSV ?
9.59e+06

Which Kinetics kon is listed for AB3 Q1569R P1597K S1602H G1603K: domain 11 AB3 + Q1569R, P1597K, S1602H, G1603K (protein) MKSNEHDDCQVTNPSTGHLFDLSSLSGRAGFTAAYSKSGVVYMSICGENENCPPGVGACFGRTRISVGKANKRLRYVDQVLQLVYKDGSKCPSKHKLSYKSVISFVCRPEAGPTNRPMLISLDKQTCTLFFSWHTPLACEQATECSV ?
2.08e+07

Which Kinetics kon is listed for AB5 P1597Q: domain 11 AB5 + P1597Q (protein) MKSNEHDDCQVTNPSTGHLFDLSSLSGRAGFTAAYAKGWGVYMSICGENENCPPGVGACFGQTRISVGKANKRLRYVDQVLQLVYKDGSQCPSKSGLSYKSVISFVCRPEAGPTNRPMLISLDKQTCTLFFSWHTPLACEQATECSV ?
6.53e+06

Which Kinetics kon is listed for AB5 P1597K S1602H: domain 11 AB5 + P1597K, S1602H (protein) MKSNEHDDCQVTNPSTGHLFDLSSLSGRAGFTAAYAKGWGVYMSICGENENCPPGVGACFGQTRISVGKANKRLRYVDQVLQLVYKDGSKCPSKHGLSYKSVISFVCRPEAGPTNRPMLISLDKQTCTLFFSWHTPLACEQATECSV ?
2.09e+06
